conditions: in methanol, 288.15 K
readout_kind: solubility (mole fraction)

{"columns": ["molecule", "readout_kind", "quantitative_readout"],
 "data": [
  ["COCC(=O)Nc1c(I)c(C(=O)NCC(O)CO)c(I)c(C(=O)N(C)CC(O)CO)c1I (stereo unspecified)", "solubility (mole fraction)", 0.000419]
]}

---

conditions: in toluene, 283.15 K
readout_kind: solubility (mole fraction)

{"columns": ["compound", "readout_kind", "quantitative_readout"],
 "data": [
  ["COCC(=O)Nc1c(I)c(C(=O)NCC(O)CO)c(I)c(C(=O)N(C)CC(O)CO)c1I (stereo unspecified)", "solubility (mole fraction)", "1.19e-05"]
]}

---

settings: in isopropanol, 308.15 K
readout_kind: solubility (mole fraction)

{"columns": ["compound", "quantitative_readout"],
 "data": [
  ["COCC(=O)Nc1c(I)c(C(=O)NCC(O)CO)c(I)c(C(=O)N(C)CC(O)CO)c1I (stereo unspecified)", 0.000177]
]}

---

details: in isopropanol, 278.15 K

{"columns": ["compound", "solubility (mole fraction)"],
 "data": [
  ["COCC(=O)Nc1c(I)c(C(=O)NCC(O)CO)c(I)c(C(=O)N(C)CC(O)CO)c1I (stereo unspecified)", "6.23e-05"]
]}

---

conditions: in DMF, 298.15 K

{"columns": ["compound", "solubility (mole fraction)"],
 "data": [
  ["COCC(=O)Nc1c(I)c(C(=O)NCC(O)CO)c(I)c(C(=O)N(C)CC(O)CO)c1I (stereo unspecified)", 0.00446]
]}

---

conditions: in toluene, 278.15 K

{"columns": ["compound", "solubility (mole fraction)"],
 "data": [
  ["COCC(=O)Nc1c(I)c(C(=O)NCC(O)CO)c(I)c(C(=O)N(C)CC(O)CO)c1I (stereo unspecified)", "1.08e-05"]
]}

---

conditions: in acetone, 303.15 K

{"columns": ["compound", "solubility (mole fraction)"],
 "data": [
  ["COCC(=O)Nc1c(I)c(C(=O)NCC(O)CO)c(I)c(C(=O)N(C)CC(O)CO)c1I (stereo unspecified)", 0.00011]
]}

---

conditions: in methanol, 278.15 K

{"columns": ["compound", "solubility (mole fraction)"],
 "data": [
  ["COCC(=O)Nc1c(I)c(C(=O)NCC(O)CO)c(I)c(C(=O)N(C)CC(O)CO)c1I (stereo unspecified)", 0.000282]
]}

---

details: in ethyl acetate, 288.15 K
readout_kind: solubility (mole fraction)

{"columns": ["compound", "readout_kind", "quantitative_readout"],
 "data": [
  ["COCC(=O)Nc1c(I)c(C(=O)NCC(O)CO)c(I)c(C(=O)N(C)CC(O)CO)c1I (stereo unspecified)", "solubility (mole fraction)", "3.57e-05"]
]}

---

settings: in DMF, 318.15 K
readout_kind: solubility (mole fraction)

{"columns": ["compound", "readout_kind", "quantitative_readout"],
 "data": [
  ["COCC(=O)Nc1c(I)c(C(=O)NCC(O)CO)c(I)c(C(=O)N(C)CC(O)CO)c1I (stereo unspecified)", "solubility (mole fraction)", 0.00544]
]}

---

conditions: in ethyl acetate, 313.15 K

{"columns": ["compound", "solubility (mole fraction)"],
 "data": [
  ["COCC(=O)Nc1c(I)c(C(=O)NCC(O)CO)c(I)c(C(=O)N(C)CC(O)CO)c1I (stereo unspecified)", 0.000101]
]}
